Each item that follows carries a reported MIC.
System: Staphylococcus aureus
TEST_SUMMARY: Antibacterial activity against methicillin-resistant Staphylococcus aureus USA300 SF8300 assessed as growth inhibition after 18 to 20 hrs by microdilution assay
Type: functional
PROPERTY_MEASURED: MIC (µM)

>  <COMPOUND>
CC[C@H](C)[C@H](NC(=O)/C(C)=C\C[C@]12OC(C)(C)C3C[C@H](C=C4C(=O)c5c(O)c6c(c(CC=C(C)C)c5O[C@@]431)OC(C)(C)C=C6)C2=O)C(=O)O

>  <READING_UNIT>
µM

>  <REPORTED_RELATION>
=

>  <OBSERVED_MEASUREMENT>
25

$$$$
>  <COMPOUND>
CC(C)=CCc1c2c(c(O)c3c1O[C@@]14C(=C[C@H]5CC1C(C)(C)O[C@]4(C/C=C(/C)C(=O)N[C@H](C(=O)O)C(C)C)C5=O)C3=O)C=CC(C)(C)O2

>  <READING_UNIT>
µM

>  <REPORTED_RELATION>
=

>  <OBSERVED_MEASUREMENT>
25

$$$$
>  <COMPOUND>
CC(C)=CCc1c2c(c(O)c3c1O[C@@]14C(=C[C@H]5CC1C(C)(C)O[C@]4(C/C=C(/C)C(=O)N[C@@H](CC(C)C)C(=O)O)C5=O)C3=O)C=CC(C)(C)O2

>  <READING_UNIT>
µM

>  <REPORTED_RELATION>
=

>  <OBSERVED_MEASUREMENT>
25

$$$$
>  <COMPOUND>
Cc1onc(-c2ccccc2)c1C(=O)N[C@@H]1C(=O)N2[C@@H]1SC(C)(C)[C@@H]2C(=O)O [OXACILLIN]

>  <READING_UNIT>
µM

>  <REPORTED_RELATION>
>

>  <OBSERVED_MEASUREMENT>
19.9

$$$$
>  <COMPOUND>
CC(C)=CCc1c2c(c(O)c3c1O[C@@]14C(=C[C@H]5CC1C(C)(C)O[C@]4(C/C=C(/C)C(=O)N[C@@H](Cc1ccccc1)C(=O)O)C5=O)C3=O)C=CC(C)(C)O2

>  <READING_UNIT>
µM

>  <REPORTED_RELATION>
=

>  <OBSERVED_MEASUREMENT>
25

$$$$
>  <COMPOUND>
CC1(C)S[C@@H]2[C@H](NC(=O)[C@H](N)c3ccccc3)C(=O)N2[C@H]1C(=O)O [AMPICILLIN]

>  <READING_UNIT>
µM

>  <REPORTED_RELATION>
>

>  <OBSERVED_MEASUREMENT>
100

$$$$
